# Assayed Target: β5 (Homo sapiens, UniProt P20618+P28074)
# Construct: endogenous in cells; host or cells: MOLT-4
# Assay Method Text: ProCISE proteasome subunit assay, β5
# Type: biochemical
# Protocol Conditions: MOLT4 lysate Hu 1 h
# From the text: This assay was used to assess the inhibitory activity against each of LMP2, LMP7, MECL1, β1, β2, and β5. Briefly, test compounds were serially diluted in DMSO at 100× concentration, then diluted to 10× in aqueous hypotonic lysis buffer. […] A chemiluminescent substrate was used to generate signal associated with HRP binding, which was detected on a plate reader. […]
Known IC50 of a selection of compounds

[
  {
    "Compound": "COc1ccc(C[C@H](NC(=O)[C@@H](C)NC(=O)CC(C)(C)O)C(=O)N[C@@H](CC2CCCC2)C(=O)[C@@]2(C)CO2)cc1",
    "Relation Qualifier": "=",
    "IC50 (nM)": 1160
  },
  {
    "Compound": "CC[C@](C)(O)CC(=O)N[C@H](C)C(=O)N[C@@H](Cc1ccc(OC)cc1)C(=O)N[C@@H](CC1CCCC1)C(=O)[C@@]1(C)CO1",
    "Relation Qualifier": "=",
    "IC50 (nM)": 883
  },
  {
    "Compound": "COc1ccc(C[C@H](NC(=O)[C@@H]2CC(=O)N2)C(=O)N[C@@H](Cc2ccccc2)C(=O)[C@@]2(C)CO2)cc1",
    "Relation Qualifier": "=",
    "IC50 (nM)": 1930
  },
  {
    "Compound": "COc1ccc(C[C@H](NC(=O)[C@@H](C)NC(=O)c2ncc[nH]2)C(=O)N[C@@H](CC2CCCC2)C(=O)[C@@]2(C)CO2)cc1",
    "Relation Qualifier": ">",
    "IC50 (nM)": 250000
  },
  {
    "Compound": "COc1ccc(C[C@H](NC(=O)[C@H](C)NC(=O)Cc2cc(C)no2)C(=O)N[C@@H](CC2CCCC2)C(=O)[C@@]2(C)CO2)cc1",
    "Relation Qualifier": "=",
    "IC50 (nM)": 372
  },
  {
    "Compound": "COc1ccc(C[C@H](NC(=O)[C@@H](C)NC(=O)c2ccncc2)C(=O)N[C@@H](CC2CCCC2)C(=O)[C@@]2(C)CO2)cc1",
    "Relation Qualifier": ">",
    "IC50 (nM)": 250000
  },
  {
    "Compound": "COc1ccc(C[C@H](NC(=O)[C@@H](C)NC(=O)c2cc(C)no2)C(=O)N[C@@H](CC2CCCC2)C(=O)[C@@]2(C)CO2)cc1",
    "Relation Qualifier": "=",
    "IC50 (nM)": 2690
  },
  {
    "Compound": "C[C@@H](NC(=O)CC(C)(C)O)C(=O)N[C@@H](Cc1ccc(S(C)(=O)=O)cc1)C(=O)N[C@@H](CC1CCCC1)C(=O)[C@H]1CO1",
    "Relation Qualifier": "=",
    "IC50 (nM)": 354
  },
  {
    "Compound": "COc1ccc(C[C@H](NC(=O)[C@@H](C)NC(=O)CC(C)(O)C(F)(F)F)C(=O)N[C@@H](CC2CCCC2)C(=O)[C@@]2(C)CO2)cc1 (stereo partly drawn)",
    "Relation Qualifier": "=",
    "IC50 (nM)": 670
  },
  {
    "Compound": "COc1ccc(C[C@H](NC(=O)[C@H](C)NC(=O)C(C)(F)F)C(=O)N[C@@H](Cc2ccccc2)C(=O)[C@@]2(C)CO2)cc1",
    "Relation Qualifier": "=",
    "IC50 (nM)": 180
  },
  {
    "Compound": "COc1ccc(C[C@H](NC(=O)[C@@H](C)NC(=O)C[C@H](C)O)C(=O)N[C@@H](CC2CCCC2)C(=O)[C@@]2(C)CO2)cc1",
    "Relation Qualifier": "=",
    "IC50 (nM)": 11000
  },
  {
    "Compound": "COc1ccc(C[C@H](NC(=O)[C@@H](CN2CCOCC2)NC(=O)c2cc(C)no2)C(=O)N[C@@H](CC2CCCC2)C(=O)[C@@]2(C)CO2)cc1",
    "Relation Qualifier": "=",
    "IC50 (nM)": 2940
  }
]

// provenance: patent US9657057B2
